Tested on: HEK-293T
Assay: Multiplex assay against HEK293T
Assay type: toxicity, cell-based
Details: human, 24 h, 1 µM, compound concentration 1 uM, replicate 1
observation type: Population Healthy Nuclei (%)
Give your result in % as a bare value.

These recorded examples may help you get a feel for the data.
O=C(O)c1cc2ccccc2c(Cc2c(O)c(C(=O)O)cc3ccccc23)c1O [PAMOIC ACID] | 78
C[C@H](NC(=O)c1c(C(F)F)nn(C)c1Oc1cccc(C(F)(F)F)c1)c1ccc(C(=O)O)cc1 [PALUPIPRANT] | 80
CC[C@H]1OC(=O)[C@H](C)[C@@H](O[C@H]2C[C@@](C)(OC)[C@@H](O)[C@H](C)O2)[C@H](C)[C@@H](O[C@@H]2O[C@H](C)C[C@H](N(C)C)[C@H]2O)[C@@]2(C)CC(C)=C(O2)[C@H](C)[C@@H](O)[C@]1(C)O | 78
CC(C)(C)c1ccc(S(=O)(=O)Nc2ccc(Cl)cc2C(=O)c2cc[n+]([O-])cc2)cc1 [VERCIRNON] | 81
N[C@@]1(C(=O)O)CO[C@H]2[C@H](C(=O)O)[C@H]21 [LY-379268] | 79

Lab note: measured Population Healthy Nuclei (%) of `Cc1ccc(-c2ccc(F)cc2COc2ccc(CCC(=O)O)cc2)cc1` was 82

Lab note: measured Population Healthy Nuclei (%) of Cl.Clc1ccc2nsnc2c1NC1=NCCN1 [TIZANIDINE HYDROCHLORIDE] was 79

* * *

Test system: HEK-293T
Assay: Multiplex assay against HEK293T
Assay type: toxicity, cell-based
Conditions: human, 12 h, 10 µM, compound concentration 10 uM, replicate 1
List of Population Tubulin-Different-Phenotype (%) values.
Give your result in % as a bare value.

These recorded examples may help you get a feel for the data.
CCCn1c(=O)c2[nH]c(C3CCCC3)nc2n(CCC)c1=O | 51
Cc1nc2ccc(Oc3ccc(F)cc3)cc2c(=O)n1C[C@H]1CCCN(C(C)C)C1.Cl | 76

Lab note: measured Population Tubulin-Different-Phenotype (%) of `CCOc1c2c(c(OCC)c3ncccc13)CN(c1ccc(CS(=O)(=O)NC(=O)Cc3ccccc3OC)cc1C)C2=O` was 34

Lab note: measured Population Tubulin-Different-Phenotype (%) of `C[C@H](NC(=O)c1c(C(F)F)nn(C)c1Oc1cccc(C(F)(F)F)c1)c1ccc(C(=O)O)cc1` was 40

* * *

System: U2OS
Assay: Multiplex assay against U2OS
Format: toxicity, cell-based
Settings: human, 48 h, 1 µM, compound concentration 1 uM, replicate 1
observation type: Population Fragmented Nuclei (%)
Give your result in % as a bare value.

These recorded examples may help you get a feel for the data.
CSCC[C@H](NC=O)C(=O)N[C@@H](CC(C)C)C(=O)N[C@@H](Cc1ccccc1)C(=O)O | 16
Cc1nc2ccc(Oc3ccc(F)cc3)cc2c(=O)n1C[C@H]1CCCN(C(C)C)C1.Cl | 19
Oc1c(CN2CCN(c3ccccn3)CC2)cc(Cl)c2cccnc12 | 25
CN1CCN(c2nc3cc(C(F)(F)F)ccc3n3cccc23)CC1.O=C(O)/C=C\C(=O)O.O=C(O)/C=C\C(=O)O | 14
CCNC1(C(N)=O)CCN(c2ncnc3c2nc(-c2ccccc2Cl)n3-c2ccc(Cl)cc2)CC1 | 24

Value sought: Population Fragmented Nuclei (%), system U2OS, item Cl.Clc1ccc2nsnc2c1NC1=NCCN1 [TIZANIDINE HYDROCHLORIDE] . Result: 11

Value sought: Population Fragmented Nuclei (%), system U2OS, item `Cc1ccc(F)cc1C(=O)Nc1ccc(C(=O)N2Cc3cccn3Cc3ccccc32)c(Cl)c1` . Result: 24

Value sought: Population Fragmented Nuclei (%), system U2OS, item `C[C@H](NC(=O)c1c(C(F)F)nn(C)c1Oc1cccc(C(F)(F)F)c1)c1ccc(C(=O)O)cc1` . Result: 15

* * *

Test system: HEK-293T
Assay: Multiplex assay against HEK293T
Assay type: toxicity, cell-based
Settings: human, 48 h, 10 µM, compound concentration 10 uM, replicate 1
observation type: Population Healthy Nuclei (%)
Give your result in % as a bare value.

O=C(NCCO)c1cccc(-c2cc(Nc3ccc(OC(F)(F)F)cc3)ncn2)c1 | 79
CSc1ccccc1N1CCN(CCCCCC(=O)NC2CCCc3ccccc32)CC1.Cl (centres undefined) | 73
O=C(O)Cc1ccccc1Nc1c(Cl)cccc1Cl | 80

Please find the next compound below.
Lab note: measured Population Healthy Nuclei (%) of `COc1ccccc1N1CCN(CCCCNC(=O)c2ccc3ccccc3c2)CC1.Cl` was 77

* * *

List of Population Mitochondria Different-Phenotype (%) values.
System: HEK-293T
Assay: Multiplex assay against HEK293T
Assay type: toxicity, cell-based
Settings: human, 48 h, 1 µM, compound concentration 1 uM, replicate 1
Give your result in % as a bare value.

CN(C)CCCc1cc(C(=O)Nc2ccc(-c3ccncc3)cc2)ccc1O.Cl.Cl | 19
O=C(O)Cc1ccccc1Nc1c(Cl)cccc1Cl | 22
CCCn1c(=O)c2[nH]c(C3CCCC3)nc2n(CCC)c1=O | 17
CC1(COc2ccc3c(c2)ncn3-c2ccc3cccc(N4CCC(N)CC4)c3n2)COC1 | 17
CC(C)(C)c1ccc(S(=O)(=O)Nc2ccc(Cl)cc2C(=O)c2cc[n+]([O-])cc2)cc1 | 16

Lab note: measured Population Mitochondria Different-Phenotype (%) of CNC[C@H](O)c1ccc(O)c(O)c1 [EPINEPHRINE] was 13

* * *

List of Population Mitochondria Different-Phenotype (%) values.
Test system: U2OS
Test: Multiplex assay against U2OS
Format: toxicity, cell-based
Conditions: human, 12 h, 10 µM, compound concentration 10 uM, replicate 2
Give your result in % as a bare value.

Lab note: measured Population Mitochondria Different-Phenotype (%) of `Cc1nc2ccc(Oc3ccc(F)cc3)cc2c(=O)n1C[C@H]1CCCN(C(C)C)C1.Cl` was 75

Lab note: measured Population Mitochondria Different-Phenotype (%) of `C[C@H]1[C@H]2CC[C@H]3[C@@H]4CC=C5C[C@@H](N(C)C)CC[C@]5(C)[C@H]4CC[C@]23CN1C` was 5

Lab note: measured Population Mitochondria Different-Phenotype (%) of Cc1ccccc1C(=O)Nc1ccc(C(=O)N2CCCC(N(C)C)c3ccccc32)cc1.Cl (configuration not stated) was 25

Lab note: measured Population Mitochondria Different-Phenotype (%) of `CCNC1(C(N)=O)CCN(c2ncnc3c2nc(-c2ccccc2Cl)n3-c2ccc(Cl)cc2)CC1` was 73

Lab note: measured Population Mitochondria Different-Phenotype (%) of `CC1(COc2ccc3c(c2)ncn3-c2ccc3cccc(N4CCC(N)CC4)c3n2)COC1` was 76

Lab note: measured Population Mitochondria Different-Phenotype (%) of `O=C(O)c1cc2ccccc2c(Cc2c(O)c(C(=O)O)cc3ccccc23)c1O` was 3

Lab note: measured Population Mitochondria Different-Phenotype (%) of `COc1cc(NC(=O)CCN2CCC(OC(=O)Nc3ccccc3-c3ccccc3)CC2)c(Cl)cc1CNC[C@H](O)c1ccc(O)c2[nH]c(=O)ccc12` was 95

Lab note: measured Population Mitochondria Different-Phenotype (%) of `O=C1COc2nccc(-c3ccccc3F)c2CN1Cc1cc(C(F)(F)F)cc(C(F)(F)F)c1` was 23

Lab note: measured Population Mitochondria Different-Phenotype (%) of `C[C@H](NC(=O)c1c(C(F)F)nn(C)c1Oc1cccc(C(F)(F)F)c1)c1ccc(C(=O)O)cc1` was 2

Lab note: measured Population Mitochondria Different-Phenotype (%) of `COc1c(C)cc(NC(=O)c2nn(Cc3ccc(F)cc3)c3c2CN(C(=O)c2ccc[nH]2)C[C@]3(C)C(N)=O)cc1C` was 97

Lab note: measured Population Mitochondria Different-Phenotype (%) of `CSCC[C@H](NC=O)C(=O)N[C@@H](CC(C)C)C(=O)N[C@@H](Cc1ccccc1)C(=O)O` was 2

Lab note: measured Population Mitochondria Different-Phenotype (%) of `Cc1ccc(F)cc1C(=O)Nc1ccc(C(=O)N2Cc3cccn3Cc3ccccc32)c(Cl)c1` was 55

Lab note: measured Population Mitochondria Different-Phenotype (%) of `N#Cc1c(N)nc(SCc2csc(-c3ccc(Cl)cc3)n2)c(C#N)c1-c1ccc(OCCO)cc1` was 61

Lab note: measured Population Mitochondria Different-Phenotype (%) of `CCOc1c2c(c(OCC)c3ncccc13)CN(c1ccc(CS(=O)(=O)NC(=O)Cc3ccccc3OC)cc1C)C2=O` was 6

Lab note: measured Population Mitochondria Different-Phenotype (%) of Cl.Clc1ccc2nsnc2c1NC1=NCCN1 [TIZANIDINE HYDROCHLORIDE] was 7

Lab note: measured Population Mitochondria Different-Phenotype (%) of CSc1ccccc1N1CCN(CCCCCC(=O)NC2CCCc3ccccc32)CC1.Cl (configuration not stated) was 92

Lab note: measured Population Mitochondria Different-Phenotype (%) of CNC[C@H](O)c1ccc(O)c(O)c1 [EPINEPHRINE] was 2
